Residues, ends and D or L forms follow the SMILES beside them. *: point of attachment. Cbz = O=C(OCc1ccccc1)*
Give measured melting point for each item. Keep answers brief.

Fc1ccc2[nH]cc(CCCNCCOc3cccc4[nH]ccc34)c2c1    70 to 73 °C
COc1nsc(S(=O)(=O)c2ccccc2)c1C#N    64 °C
COc1cc(Cc2cnc(N)nc2N)cc2c(C)ccnc12    287 to 290 °C

Give me melting point for each of these compounds, listed below.
1. C/C(=C(\C#N)C(N)=S)N1CCCSCC1
2. CCOC(=O)c1nc2c(Cl)nc3cc(C(F)(F)F)ccc3n2c1C
3. CC(=O)Nc1cc2c(cc1Oc1ccc(F)cc1F)CCC2c1ccccc1 (stereo not given)
4. COc1ccc(C(=O)CCCCCN2CCC(CNC(=O)c3cc(Cl)c(N)cc3OC)CC2)cc1Cl

138 to 142 °C
182 to 183 °C
117 °C
104 to 106 °C

Give me melting point for each of these compounds, listed below.
1. COC(=O)c1ccccc1NC(=O)CC(C)=O
2. O=c1cc(-c2ccncc2)nc2n1CCN2
3. COc1cc(C(C)=O)ccc1OCCCN1CCC(c2n[nH]c3cc(F)ccc23)CC1

1. 79 to 80 °C
2. 318 to 320 °C
3. 202 to 204 °C

Give me melting point for each of these compounds, listed below.
1. COCCCNc1cc(C(F)(F)F)ccc1N
2. COC(=O)C(Cc1ccccc1)NC(=O)C(CC(N)=O)NC(=O)C(CO)NC(=O)OCc1ccccc1 (stereo not drawn) (Cbz-Ser-Asn-Phe-OMe; configuration not given here)
3. COCC1OC(n2c(Cl)nc3cc(Cl)c(Cl)cc32)C(O)C1O (stereo not given)
4. CCC(COC)NC(=O)C(Cc1ccc(OCc2ccccc2)cc1)NC(=O)C(CC(C)C)N(C)Cc1ccc(C(C)(C)C)cc1 (stereo not given)

1: 69 to 70 °C; 2: 180 to 183 °C; 3: 104 to 105 °C; 4: 118 to 120 °C

---

Measured Property: melting point

Below are worked cases with known answers.
COc1ccc(-c2cc(NC(=O)CCCCBr)n[nH]2)cc1    150 to 152 °C
Cc1ncsc1NC(=O)Nc1ccc(-n2nc(C3CC3)cc2C(F)(F)F)nc1    244 to 247 °C
c1ccc(CSc2nccn2-c2ccccn2)cc1    76 to 77 °C

Look at this compound and give its reported melting point. Cc1cccc2[nH]nnc12 145 to 146 °C

---

Give measured melting point for each item. Keep answers brief.

Give me melting point for each of these molecules, listed below.
1. CC1(C)Oc2ccc3nc(C(N)=O)ccc3c2C(NCCc2ccccc2)C1O (stereo unspecified)
2. COc1cc2ncc(C#N)c(Nc3ccc(F)c(Cl)c3)c2cc1NC(=O)C=CCN1CCC(O)C1 (stereo unspecified)

["197 to 199 °C", "215 to 220 °C"]

Give me melting point for each of these molecules, listed below.
1. COc1c(C)cnc(Cn2cc(C#CCC(C)(C)O)c3c(Cl)nc(N)nc32)c1C
2. COC(=O)c1c(C)nc(-c2ccccc2)nc1-c1cccc([N+](=O)[O-])c1
3. COc1cc2c(cc1OC)-c1cc(=Nc3c(C)cc(C)cc3C)n(C)c(=O)n1CC2
4. COc1ccc(C(=O)N2c3ccccc3C(n3c4ccccc4c4ccccc43)CC2CCCCCN2CCC(c3cccc(C(F)(F)F)c3)CC2)cc1OC (stereo unspecified)
5. CC(C)(C)c1cc(CCc2ccccc2NC(=O)N2CCN(Cc3ccc4c(c3)OCO4)CC2)cc(C(C)(C)C)c1O
6. NC1CCCN(C(=O)c2ccc(NC(=O)c3ccccc3Cl)cc2)c2ccccc21 (stereo unspecified)

1. 163 to 165 °C
2. 128 to 130 °C
3. 151 to 152 °C
4. 149 to 150 °C
5. 149 to 151 °C
6. 176 to 178 °C

Give me melting point for each of these molecules, listed below.
1. CCCCOc1ccc(F)cc1OCCN1C(=O)c2ccccc2C1=O
2. CCCc1cc(N2CCN(c3ccncc3)CC2)ccc1OCCCC(=O)O
3. O=[N+]([O-])c1ccccc1Sc1ccc(Cl)cc1
4. COc1ccccc1SC1CC(=O)N1 (stereo unspecified)
5. CCOC(=O)[C@H](Cc1ccc(O)cc1)NC(=O)c1c(F)cccc1Cl
6. COCCN1CCN(CCc2ccc(Nc3ncc4c(n3)-c3ccccc3[C@H](c3ccc(F)cc3)C4)cc2)CC1

1. 107 to 108 °C
2. 207 to 209 °C
3. 91 to 93 °C
4. 103 to 105 °C
5. 144 to 145 °C
6. 195 to 198 °C

Give me melting point for each of these molecules, listed below.
1. CC(=O)OC1CSC(Oc2cncc(-c3ccncc3)c2)C(OC(C)=O)C1OC(C)=O (stereo unspecified)
2. CC(=O)Nc1nc2ccc(Cl)nc2c(=O)[nH]1
3. COc1ccc(S(=O)(=O)N(CC(N)=O)c2ccc(Cl)cc2C(O)c2ccccc2C(F)(F)F)cc1OC (stereo unspecified)
4. CC(C)n1cc2c3c(cccc31)C1CC(C(=O)NCCc3c[nH]cn3)CN(C)C1C2 (stereo unspecified)

["138 °C", "317 to 319 °C", "129 °C", "83 to 86 °C"]

---

Measured Property: melting point

Below are worked cases with known answers.
O=C1NC(CCc2cc(C(F)(F)F)cc(C(F)(F)F)c2)C(Cc2c[nH]c3ccccc23)N1 (configuration not stated)    194 to 195 °C
CNC(=O)c1ncnc(C)c1NC(=O)c1cc(Cl)nn1-c1ncccc1Cl    205 to 207 °C
Cc1cc(F)c(N)cc1-n1cc(C(=O)O)c(=O)c2cc(F)c(N3CC(O)C3)c(C)c21    147 to 151 °C
Cc1cc(C)c2ncc(NC(=O)C3(C)CCc4c(C)c(O)c(C)c(C)c4O3)c(-c3ccccc3Cl)c2c1 (configuration not stated)    222 to 224 °C
CCCCCCCc1c(C(C)C)nc(C(C)C)c(CO)c1-c1ccc(F)cc1    73 to 75 °C

Give me melting point for each of these compounds, listed below.
1. CCOP(=O)(OCC)C(C)CNC(=O)CCl (configuration not stated)
2. COc1cc2c(cc1OC)N(C(=O)C=Cc1ccccc1)CC(N(C)C)C2 (configuration not stated)

93 to 95 °C
97 to 98 °C

---

Give measured melting point for each item. Keep answers brief.

CC(C)(C)C(=O)c1c[nH]c2ncc(-c3ccc(S(N)(=O)=O)cc3)nc12    277 to 278 °C
COc1cc(C=c2[nH]c(=O)c(=Cc3ccc(OCc4ccccc4)cn3)[nH]c2=O)cc(OC)c1    237 to 239 °C
OCc1cc(Cl)c(N=C2NCCN2)c(Cl)c1    208 to 210 °C
C=CCNc1nc(NC)c2cc([N+](=O)[O-])ccc2n1    211 to 212 °C
CCc1cc2c(s1)-n1c(C)nnc1C(CCC(=O)O)N=C2c1ccc(Cl)cc1 (stereo not given)    210 to 212 °C

Give me melting point for each of these molecules, listed below.
1. COC(=O)c1ccc2c(c1)S(=O)(=O)N=CN2C1CC1
2. COC(=O)[C@H](CO)NC(=O)c1ncn2c1CN(C)C(=O)c1c(Cl)cccc1-2
3. Fc1cc(CC2(Cc3ccnc(F)c3)c3ccccc3-c3nccnc32)ccn1
4. CC1=Nc2ccccc2S(=O)(=O)N1
5. CCCCCCCCCCCCn1nnc(CCC(=O)OC)n1
6. Cc1c(NC(=O)c2ccc(-c3ccc(F)cc3)cc2)ccc2cc(CN3CCC(CC(N)=O)CC3)cnc12

1. 192 to 195 °C
2. 178 to 180 °C
3. 119 to 120 °C
4. 260 to 261 °C
5. 39 to 42 °C
6. 258 to 260 °C

---

Give measured melting point for each item. Keep answers brief.

O=C(NCc1ccccc1)C1(CCCc2ccccc2)c2ccccc2-c2ccccc21    94 °C
C=CC(C)Nc1c(-c2c(F)cc(F)cc2F)c(Cl)nc2ncnn12 (stereo unspecified)    101 °C
Cc1ccc(-c2ccc3c(c2)C=C(C(=O)Nc2ccc(CN(C)C4CCOCC4)cc2)CCN3C)cc1    178 to 181 °C
O=C(c1ccccc1)c1ccc(-c2nc(COc3ccc(CCCn4ccnc4)cc3)co2)cc1    112 to 113 °C
CNCc1ccc2oc(-c3ccccc3C#N)c(Br)c2c1    114 °C
COc1ccc(C(=O)OCCN2CCC(Nc3nc4ccccc4n3Cc3ccc(F)cc3)CC2)cc1    189 °C

Give me melting point for each of these compounds, listed below.
1. CCCCOC(=O)[C@H]1NC(=O)[C@H]1N (relative stereo)
2. C=CCNc1nc(NC(C)CC)c2scc(C)c2n1 (stereo unspecified)
3. N#CCCNC(=O)c1cccc(-c2ccc3c(c2)C(Oc2ccc(Cl)cc2Cl)CCC3)c1 (stereo unspecified)
4. COC(=O)c1cn(S(=O)(=O)c2ccc(C)cc2)c(C)c1C
5. CC(=O)Nc1ccc(-c2nc3ccccc3s2)cc1
6. CC(C)[C@@H](CNC(=O)/C=C/c1ccccc1)NC(=O)OC(C)(C)C

1: 87 to 89 °C; 2: 91 to 92 °C; 3: 150 to 151 °C; 4: 108 to 114 °C; 5: 227 to 229 °C; 6: 149 to 151 °C

Give me melting point for each of these compounds, listed below.
1. COc1cn(C(C)=O)c2ccc(F)c(Cl)c12
2. Cc1cccc(OC2CCN(CCc3c[nH]c4ccccc34)CC2)c1
3. COc1ccccc1COc1ccc(S(=O)(=O)c2ccc(C)nc2Nc2ccc(OC(F)F)cc2Cl)cc1
4. COc1cc(-c2ccc3c(c2)CC[C@H]2N(C)C(=O)CC[C@]32C)ccc1O

114 to 115 °C
145 to 146 °C
124 to 125 °C
247 to 250 °C

Give me melting point for each of these compounds, listed below.
1. Cc1cc(C)cc(C(=O)Cc2ccnc(N)c2)c1
2. CCOC(=O)C1=C[C@@H](OC(CC)CC)[C@@H](NC(C)=O)[C@H](O)[C@@H]1O
3. COc1ccc(C(=O)Nc2ccccc2)cc1Nc1cccc(NC(C)=O)c1
4. COC(=O)c1ccc(CCCCO)cc1

["123 to 126 °C", "154 °C", "202 to 203 °C", "95.5 to 96 °C"]

Look at this compound and give its reported melting point. O=C(CN1C(=O)C(c2ccccc2)c2ccccc21)NCc1ccccc1 (stereo unspecified) 182 to 183 °C
